assay: in vivo; conditions: male, golden, hamster, 100 mg/kg, B/P ratio (%), Cmax
Where a name gives a salt, the structure may show the parent alone.
MEASURE: Kp

| COMPOUND | EXPERIMENTAL VALUE |
| --- | --- |
| Cc1cn(-c2cc(NC(=O)c3ccc(C)c(Nc4nccc(-c5cnccn5)n4)c3)cc(C(F)(F)F)c2)cn1 [radotinib, Radotinib hydrochloride] | 0.149 |

* * *

assay: in vivo; settings: male, hamster, 100 mg/kg, B/P ratio (%), AUClast
Counter-ions that a name gives are not always drawn.

| COMPOUND | Kp |
| --- | --- |
| Cc1cn(-c2cc(NC(=O)c3ccc(C)c(Nc4nccc(-c5cnccn5)n4)c3)cc(C(F)(F)F)c2)cn1 [radotinib, Radotinib hydrochloride] | 0.232 |
